Source of measurements: PubChem BioAssay (Tox21)

# procedure-text: qHTS RealTime-Glo MT Cell Viability Assay in HepG2 cells - 24 hour (AID 1224867); also: nearly all actives have a fitted effect of over 50% in size
# condition-label: RealTime-Glo luminescence; series mostly up to 76.8 µM
Inconclusive results are not listed. Calls of active or inactive are those of the source. Calls follow the shape of the dose curve; as a rule, active = well fitted cell-killing curve with a large enough effect in the repeat runs; inconclusive = weak or mixed curves; inactive = flat fitted curve, though single readings scatter.
Respond using exactly one of the listed classes: Yes for active, No for inactive

[
  {
    "compound": "Nc1ccc(Sc2ccc(N)cc2)cc1",
    "label": "No"
  },
  {
    "compound": "CC(C)CCCCCOC(=O)c1ccccc1C(=O)OCCCCCC(C)C",
    "label": "No"
  },
  {
    "compound": "COP(=O)(OC)SCn1c(=O)oc2cc(Cl)cnc21",
    "label": "No"
  },
  {
    "compound": "Clc1ccc(Oc2ccccc2)cc1",
    "label": "No"
  },
  {
    "compound": "CC1(C)CN=C(NN=C(/C=C/c2ccc(C(F)(F)F)cc2)/C=C/c2ccc(C(F)(F)F)cc2)NC1",
    "label": "Yes"
  },
  {
    "compound": "C[C@H]1O[C@@H](O[C@H]2[C@@H](O)C[C@H](O[C@H]3[C@@H](O)C[C@H](O[C@H]4CC[C@@]5(C)[C@H](CC[C@@H]6[C@@H]5CC[C@]5(C)[C@@H](C7=CC(=O)OC7)CC[C@]65O)C4)O[C@@H]3C)O[C@@H]2C)C[C@H](O)[C@@H]1O",
    "label": "No"
  },
  {
    "compound": "CN(C)C(=S)[S-].CN(C)C(=S)[S-].[Cu+2]",
    "label": "Yes"
  },
  {
    "compound": "BrC(Br)C(Br)(Br)Br",
    "label": "No"
  }
]

Exam item: Entry "CCCCOP(=O)(CCCC)OCCCC" : call = ?
Marked response: No

Exam item: Entry CCSC(C)CC1CC(=O)C(/C(CC)=N/OC/C=C/Cl)=C(O)C1 (stereo not given) : call = ?
Marked response: No

====

# procedure-text: qHTS assay to identify small molecule antagonists of the estrogen related receptor (ERR) signaling pathway from Tox21 library - cell viability counter screen (AID 1224834); also: nearly all actives have a fitted effect of over 30% in size
# condition-label: ERR reporter cells viability, CellTiter-Fluor, 17.5 h; series mostly up to 92.4 µM
# Description: National Center for Advancing Translational Sciences [NCATS] NIH Chemical Genomics Center [NCGC] U.S. Environmental Protection Agency [EPA] National Institutes of Environmental Health Sciences [NIEHS] National Toxicology Program [NTP] […] The ERR cells were dispensed at 2,000 cells/5 ul/well in 1536-well white plates using a Multidrop dispenser. […] After 30-minute incubation at 37 C/5% CO2, the fluorescence intensity in the plates was measured using a ViewLux plate reader.
Inconclusive results are not listed. Activity calls are given as the source filed them. Calls come from the whole dose curve; as a rule, active = well fitted cell-killing curve with a large enough effect in the repeat runs; inconclusive = weak or mixed curves; inactive = flat fitted curve, though single readings scatter.
Respond using exactly one of the listed classes: TRUE for active, FALSE for inactive

For orientation, consider the following solved cases.
[
  {
    "molecule": "COS(=O)(=O)c1ccc(C)cc1",
    "label": "FALSE"
  },
  {
    "molecule": "N#Cc1ccccc1N",
    "label": "FALSE"
  },
  {
    "molecule": "Cc1cc(C(C)(C)c2cc(C)c(O)c(C)c2)cc(C)c1O",
    "label": "TRUE"
  },
  {
    "molecule": "CC(C)CC(C)N (stereo not drawn)",
    "label": "FALSE"
  },
  {
    "molecule": "CC(C)CCCCCOC(=O)c1ccccc1C(=O)OCCCCCC(C)C",
    "label": "FALSE"
  }
]

Exam item: Entry "CCc1ccccc1C" : call = ?
Marked response: FALSE

Exam item: Entry "CCOC(=O)C1(c2ccccc2)CCN(CCC(C#N)(c2ccccc2)c2ccccc2)CC1" : call = ?
Marked response: FALSE

Exam item: Entry "CC(=O)[O-].CC(=O)[O-].[Hg+2]" : call = ?
Marked response: TRUE

Exam item: Entry "CN(C)S(=O)(=O)N(SC(F)(Cl)Cl)c1ccccc1" : call = ?
Marked response: TRUE

Exam item: Entry "CC(=[OH+])/C=C(/C)[O-].CC(=[OH+])/C=C(\C)[O-].CC(=[OH+])/C=C(\C)[O-].[Fe]" : call = ?
Marked response: FALSE

Exam item: Entry "CC1(C)CN=C(NN=C(/C=C/c2ccc(C(F)(F)F)cc2)/C=C/c2ccc(C(F)(F)F)cc2)NC1" : call = ?
Marked response: TRUE

Exam item: Entry "C=COCCCl" : call = ?
Marked response: FALSE

Exam item: Entry "ClC(Cl)=C(c1ccc(Cl)cc1)c1ccc(Cl)cc1" : call = ?
Marked response: FALSE

Exam item: Entry "Oc1ccc(I)cc1" : call = ?
Marked response: FALSE

Exam item: Entry "ClC(Cl)=C(Cl)Cl" : call = ?
Marked response: FALSE

Exam item: Entry "COc1ccc(OC)c(C=O)c1" : call = ?
Marked response: FALSE

Exam item: Entry "Cc1cc(C)c(C2=C(OC(=O)CC(C)(C)C)C3(CCCC3)OC2=O)c(C)c1" : call = ?
Marked response: FALSE

Exam item: Entry "CC(C)(c1ccc(O)c(-c2ccccc2)c1)c1ccc(O)c(-c2ccccc2)c1" : call = ?
Marked response: TRUE

====

# procedure-text: qHTS RealTime-Glo MT Cell Viability Assay in HEK293 cells - 40 hour (AID 1224874); also: % is scaled to controls: 0 for no effect and ±100 for the full control effect; nearly all actives have a fitted effect of over 50% in size
# condition-label: RealTime-Glo luminescence; active compounds read low
Records with an inconclusive call do not appear.
Give measured max response for each item. Keep answers brief.
Answers are plain numbers, in %.

Example molecules with recorded max response:
[
  {
    "cpd-smiles": "N#Cc1ccccc1N",
    "measured-value": 0.901
  },
  {
    "cpd-smiles": "O=[N+]([O-])c1cc(Cl)ccc1Cl",
    "measured-value": -0.799
  },
  {
    "cpd-smiles": "CCOP(=S)(OCC)SCS(=O)(=O)C(C)(C)C",
    "measured-value": -15.1
  }
]

# per-item lookup of max response; items listed below
1. BrCBr
2. Nc1ccccc1C(=O)Oc1ccc2ccccc2c1

Marked response:
10.5
-20.2

====

# procedure-text: qHTS assay to identify aromatase inhibitors - cell viability counter screen (AID 743084);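 also: cells stimulated with testosterone during compound exposure; nearly all actives have a fitted effect of over 55% in size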
# condition-label: MCF-7 aro ERE viability, CellTiter-Fluor, 24 h; series mostly up to 70.3 µM
Results filed as inconclusive are left out. Activity calls are given as the source filed them. Calls follow the shape of the dose curve; as a rule, active = well fitted cell-killing curve with a large enough effect in the repeat runs; inconclusive = weak or mixed curves, or effect the other way; inactive = no such curve, though single readings can be large or run the other way.
Respond using exactly one of the listed classes: True for active, False for inactive

For orientation, consider the following solved cases.
[
  {
    "cpd-smiles": "O=C(CBr)c1ccc(O)cc1",
    "label": "False"
  },
  {
    "cpd-smiles": "O=[N+]([O-])c1ccc2ccc3cccc4ccc1c2c34",
    "label": "False"
  },
  {
    "cpd-smiles": "O=CC(Br)(Br)Br",
    "label": "True"
  }
]

Next up:
Exam item: Entry "N#CCCSCCC#N" : call = ?
Marked response: False

====

# procedure-text: qHTS assay for identifying genotoxic compounds that show differential cytotoxicity against isogenic chicken DT40 cell lines with known DNA damage response pathways - wild type cell line (AID 743012); also: nearly all actives have a fitted effect of over 60% in size
# condition-label: DT40 wild type chicken cells viability, CellTiter-Glo, 40 h; series mostly up to 68.4 µM
Records with an inconclusive call do not appear. Activity calls are given as the source filed them. Calls come from the whole dose curve; as a rule, active = well fitted cell-killing curve with a large enough effect in the repeat runs; inconclusive = weak or mixed curves, or effect the other way; inactive = no such curve, though single readings can be large or run the other way.
Respond using exactly one of the listed classes: active, inactive

Exam item: Entry "CN(C)C(=S)[S-].CN(C)C(=S)[S-].[Cu+2]" : call = ?
Marked response: active

Exam item: Entry "OC(c1ccc(Cl)cc1)(c1ccc(Cl)cc1)C(Cl)(Cl)Cl" : call = ?
Marked response: active

Exam item: Entry "C[C@]12Cc3nonc3C[C@@H]1CC[C@@H]1[C@@H]2CC[C@@]2(C)[C@H]1CC[C@]2(C)O" : call = ?
Marked response: active

====

# procedure-text: qHTS assay to identify small molecule antagonists of the retinoid-related orphan receptor gamma (ROR-gamma) signaling pathway - cell viability counter screen (AID 1159520); also: nearly all actives have a fitted effect of over 50% in size
# condition-label: Tet-on RORgamma CHO cells viability, ATP luminescence, 16 h; series mostly up to 92.4 µM
Inconclusive results are not listed. Calls of active or inactive are those of the source. Calls come from the whole dose curve; as a rule, active = well fitted cell-killing curve with a large enough effect in the repeat runs; inconclusive = weak or mixed curves, or effect the other way; inactive = no such curve, though single readings can be large or run the other way.
Respond using exactly one of the listed classes: true (1) = active, false (0) = inactive

Exam item: Entry "CC(C)(c1ccc(O)c(-c2ccccc2)c1)c1ccc(O)c(-c2ccccc2)c1" : call = ?
Marked response: true (1)

Exam item: Entry COc1ccc(OC)c(CC(C)N)c1 (stereo unspecified) : call = ?
Marked response: false (0)

Exam item: Entry "Oc1ccc(I)cc1" : call = ?
Marked response: false (0)

Exam item: Entry "Cc1cc(C)cc(OP(=O)(Oc2cc(C)cc(C)c2)Oc2cc(C)cc(C)c2)c1" : call = ?
Marked response: false (0)

Exam item: Entry "NNC(=O)c1ccccc1" : call = ?
Marked response: false (0)

Exam item: Entry "Cc1c(Cl)c(=O)oc2cc(OP(=O)(OCCCl)OCCCl)ccc12" : call = ?
Marked response: false (0)
